Biological target: T1, cyno IL-23 (cyno, limits assumed)
T1 construct: Heterodimer of p19 and p40; also called cynomolgus IL-23
T1 chain 1: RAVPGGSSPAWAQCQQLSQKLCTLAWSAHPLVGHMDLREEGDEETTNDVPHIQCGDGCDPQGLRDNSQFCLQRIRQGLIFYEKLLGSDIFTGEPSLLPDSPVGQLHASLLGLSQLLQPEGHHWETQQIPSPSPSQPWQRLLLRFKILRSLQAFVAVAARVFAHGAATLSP
T1 chain 2: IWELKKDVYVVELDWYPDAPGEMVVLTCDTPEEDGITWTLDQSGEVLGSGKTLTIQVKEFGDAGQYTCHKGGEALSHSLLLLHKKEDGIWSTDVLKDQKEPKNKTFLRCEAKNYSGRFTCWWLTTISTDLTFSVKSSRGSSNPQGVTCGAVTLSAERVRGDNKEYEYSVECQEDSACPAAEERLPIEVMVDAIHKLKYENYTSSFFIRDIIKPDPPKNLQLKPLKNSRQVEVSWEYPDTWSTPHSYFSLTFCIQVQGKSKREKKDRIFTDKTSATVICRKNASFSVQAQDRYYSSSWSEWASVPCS
Test: SPR Biacore, purified mAb captured on anti-human IgG, cyno IL-23 64-0.062 nM
Form field: koff (one value per entry).
Just the number in s⁻¹, nothing appended.

* A5M12 (antibody, human IgG1, V domains shown) VH: QVQLVQSGAEVKKPGSSVKVSCKASGYTFTSYGITWVRQAPGQGLEWMGENYPRSGNTYYNEKFKGRVTITADKSTSTAYMELSSLRSEDTAVYYCARAEFISTVVAPYYYALDYWGQGTLVTVSS VL: DIVMTQSPDSLAVSLGERATINCKASKKVTIYGSTSALHWYQQKPGQPPKLIYNGAKPESGVPDRFSGSGSGTDFTLTISSLQAEDVAVYYCLQNKEVPYTFGGGTKVEIK | 0.000134
* A5M0 (antibody, human IgG1, kappa, V domains shown) VH: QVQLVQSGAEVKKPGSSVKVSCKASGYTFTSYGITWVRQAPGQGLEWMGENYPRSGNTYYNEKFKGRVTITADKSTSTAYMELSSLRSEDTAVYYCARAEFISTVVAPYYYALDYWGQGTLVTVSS VL: DIVMTQSPDSLAVSLGERATINCKASKKVTIFGSISALHWYQQKPGQPPKLIYNGAKLESGVPDRFSGSGSGTDFTLTISSLQAEDVAVYYCLQNKEVPYTFGGGTKVEIKR | 0.000224

Ask | // query koff value for entry A5M21 (antibody, human IgG1, kappa, V domains shown) VH: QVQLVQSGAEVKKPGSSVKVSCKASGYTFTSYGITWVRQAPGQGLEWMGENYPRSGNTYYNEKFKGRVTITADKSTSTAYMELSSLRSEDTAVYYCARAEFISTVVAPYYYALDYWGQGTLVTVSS VL: DIVMTQSPDSLAVSLGERATINCKASKKVTIYGSTSALHWYQQKPGQPPKLIYNLAKPESGVPDRFSGSGSGTDFTLTISSLQAEDVAVYYCLQNKEVPYTFGGGTKVEIKR
Reply | 0.00012
